Test system: HT29 colon
measurement.notes: NCI-60 one-dose screen, 48 h
settings: 10 µM
Compounds without any hit were thinned out: in the full panel of roughly 83,000, 20% have a hit. The source made the active and inactive calls. The calls were made as follows: active = growth percent below 10; inactive = the rest.
Outcomes: TRUE = active, FALSE = inactive

compound | label
CCCCn1c(=O)[nH]c(N)c(C(c2ccc(Cl)cc2)c2c(N)[nH]c(=O)n(CCCC)c2=O)c1=O | FALSE
Fc1ccc(Nc2ccnc(N3CCN(c4ccnc5cc(Cl)ccc45)CC3)n2)cc1 | FALSE
Cc1nnc2c3nnc(-c4ccc(Cl)cc4)n3c3ccccc3n12 | FALSE
COc1ccc(-c2nnc(COc3ccc(NC(=O)Nc4cccc(C(F)(F)F)c4)cc3F)o2)cc1 | FALSE
CCCCCCCCCCCCCCCCn1cc[n+](C)c1 | TRUE
COc1cc(Nc2ccnc(N3CCN(c4ccnc5cc(Cl)ccc45)CC3)n2)cc(OC)c1 | TRUE
CCN(CC)c1ccc(/C=C/C2=[N+](C)c3ccccc3C2(C)C)c(C)c1 | TRUE
C[N+]1=C(/C=C/c2ccc(I)cc2)C(C)(C)c2ccccc21 | FALSE
CCN(CC)CCn1c(=N)n(CC(O)c2ccc(Cl)c(Cl)c2)c2ccccc21 (configuration not stated) | FALSE
CCCCCCCCCCCCc1ccc(C(=O)/C=C/C(=O)O)cc1 | FALSE
COc1ccc(-c2nc(-c3nc4ccc(C)cc4[nH]3)c3ccccn23)cc1 | FALSE
Cc1ccc(NS(=O)(=O)c2ccccc2)c(NS(=O)(=O)c2ccccc2)c1 | FALSE
O=C(NNc1nc(N2CCCC2)nc(N2CCCC2)n1)c1ccccc1 | FALSE
CCNC1(NC#N)CCCCC1 | FALSE
FC(F)(F)c1ccc(-c2ncc(-c3ccc(C(F)(F)F)cc3)c(NCc3cc(C(F)(F)F)cc(C(F)(F)F)c3)n2)cc1 | FALSE
CCCCCCCCCCCC(c1ccccc1)N(C)C (configuration not stated) | FALSE
CCN1CCN(c2nc(NNC(=O)c3cccc(OC)c3)nc(N3CCN(C(c4ccccc4)c4ccccc4)CC3)n2)CC1 | TRUE
COc1cc(OC)cc(-c2n/c(=C\c3c(O)[nH]c4ccc(OC)cc34)cc3c2=Nc2ccccc2-3)c1 | FALSE
COc1cc(C(c2c[nH]c3ccccc23)N2CCCC2)ccc1OCc1ccccc1 (configuration not stated) | FALSE
O=C(NC1CCN(Cc2ccccc2)CC1)c1cc(-c2ccncc2)nc2ccc(Cl)cc12 | FALSE
O=S(=O)(O)C1(O)CCCCC1 | FALSE
CCc1ccc(-c2nnc(COc3ccc(-c4nc5cc(Cl)c(Cl)cc5[nH]4)cc3OC)o2)cc1 | FALSE
O=[N+]([O-])c1ccc(Br)o1 | FALSE
O=C(O)c1ccc(CNc2ccc(C(=O)CCl)cc2)cc1 | FALSE
COc1nc2c(c(=O)[nH]1)C(c1ccc(Oc3ccnc4cc(Cl)ccc34)c(OC)c1)C=C(c1cc(OC)c(OC)c(OC)c1)N2 (configuration not stated) | FALSE
CC1(CO)CCCC12OCCO2 (configuration not stated) | FALSE
O=C(NCCc1nccs1)c1cnc2c(S)cccc2c1 | FALSE
COc1cc(-c2nc3cc(Cl)c(Cl)cc3[nH]2)ccc1OCC(=O)NN | FALSE
CCOC(=O)c1c(C(F)(F)F)n([O-])c2ccc(OC)cc2[n+]1=O | FALSE
O=C1CC[C@@H](C(=O)N[C@H]2CSSC[C@@H](C(=O)N/C=C/c3ccc(O)cc3)NC(=O)[C@H](Cc3ccccc3)NC(=O)[C@@H]3CCCN3C(=O)[C@@H]3CCCN3C2=O)N1 | FALSE
O=[N+]([O-])C1CC2C=CC1C2 (configuration not stated) | FALSE
C=CCNC(=S)NN | FALSE
Nc1nc2c(nnn2C2CC(O)C(CO)O2)c(=O)[nH]1 (configuration not stated) | FALSE
O=C(NCCCl)c1cc(Cl)cc(Cl)c1 | FALSE
CNC(=O)c1cc(Oc2ccc(NC(=O)Nc3ccc(Cl)c(OC(C)C)c3)c(F)c2)ccn1 | FALSE
O=C/C=C/c1ccc([N+](=O)[O-])cc1Cl | FALSE
N#C/C(=C/c1cc([N+](=O)[O-])ccc1Cl)C(N)=O | FALSE
C#CCNCCCN1C(=O)c2ccc3c4c(ccc(c24)C1=O)C(=O)N(CCCNCC#C)C3=O | TRUE
O=C(COc1ccc(Cl)cc1Cl)Oc1coc(CSc2nc3ccccc3s2)cc1=O | FALSE
CN(C)c1ccc2cc(-c3cc4c(oc3=O)-c3ccccc3OC4O)c(=O)oc2c1 (configuration not stated) | FALSE
Cn1c([N+](=O)[O-])cnc1C=C1C(=O)c2ccccc2C1=O | FALSE
COC(=O)C1(C(=O)OC)C2C(=O)C3C(C21)C3(C(=O)OC(C)(C)C)C(=O)OC(C)(C)C (configuration not stated) | FALSE

Origin of measurements: PubChem BioAssay (NCI)
